- procedure.text: Drug repurposing screens with cells derived from glioblastoma tumor samples (AID 1345199); further: on the % scale 0 is the no-effect control and ±100 the full control effect; nearly all actives have a fitted effect of over 40% in size
- test.conditions: GBM patient neurospheres viability, ATP luminescence, 48 h; at 45.9 µM (top of the series); tumour line B
Results filed as inconclusive are left out. Calls of active or inactive are those of the source. The call rests on the fitted dose curve; in most records, active means well fitted inhibition curve with a large enough effect; inconclusive means small, poorly fitted or top-dose-only effect; inactive means flat fitted curve, though single readings scatter.
Each entry below carries its recorded activity, negative = cell killing.

IN: // returns reported activity, negative = cell killing for input CCC(=O)O[C@]1(C(=O)CCl)[C@@H](C)C[C@H]2[C@@H]3C[C@H](F)C4=CC(=O)C=C[C@]4(C)[C@@]3(F)[C@@H](O)C[C@@]21C
OUT: -14.4% (inactive)

---

- procedure.text: Primary redox qHTS assay for identification of artifact compounds. (AID 1845223);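 further: 0% = DMSO and 100% = reference compound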
- test.conditions: Amplex Red/HRP redox cycling with DTT, fluorescence; series mostly up to 53.8 µM
Records with an inconclusive call do not appear. Active and inactive are the calls of the source. Calls follow the shape of the dose curve; as a rule, active = well fitted activation curve with a large enough effect; inconclusive = small, poorly fitted or top-dose-only effect; inactive = flat fitted curve, though single readings scatter.

compound	redox activity (% of DA3003)
C=C1C[C@]23C[C@H]1CC[C@H]2[C@@]12C=C[C@H](O)[C@@](C)(C(=O)O1)[C@H]2[C@@H]3C(=O)O	inactive
CC1=C2CC3OC3(C)CCC3OC3(C)CC2OC1=O (centres undefined)	inactive
COC(=O)CC[C@@H](C)[C@H]1CC[C@H]2[C@@H]3CC(=O)[C@H]4C[C@H](OC(C)=O)CC[C@]4(C)[C@H]3CC[C@]12C	inactive
CC(=O)O[C@@H]1[C@H]2[C@@H](OC(=O)c3ccccc3)[C@@H](C)C[C@]2(O)[C@H](OC(C)=O)[C@@]2(C)[C@@H]3CC(C)(C)C(=O)[C@]3(OC(C)=O)C[C@@]12C	inactive

---

- procedure.text: S16 Schwann cell PMP22 intronic element beta-lactamase assay (AID 624044); further: nearly all actives have a fitted effect of over 15% in size
- test.conditions: S16 rat Schwann cells, PMP22 element beta-lactamase FRET, 24 h; series mostly up to 38.3 µM
- Procedure: Description: Charcot-Marie-Tooth-Association [CMTA] National Center for Advancing Translational Sciences [NCATS] […] S16 Schwann cell PMP22 intronic element beta-lactamase assay The beta-Lac-expressing S16 cells were seeded in black clear-bottom 1536 well plates at between 500-750 cells/6uL in DMEM medium containing 10% FBS, w/o phenol red. […] The concentration-effect curves were then classified based on curve quality (r2), response magnitude and degree of measured activity.
Results filed as inconclusive are left out. The source made the active and inactive calls. Calls come from the whole dose curve.
Returns: one label drawn from Y (active), N (inactive)

The examples below pair each entry with its known result.
smiles.entry	assigned.class
Cc1c(C)c2c(c(C)c1O)CC[C@@](C)(CCC[C@@H](C)CCC[C@@H](C)CCCC(C)C)O2	N
O=C(COc1ccc(Cl)cc1)OCCNC12CC3CC(CC(C3)C1)C2	N
CCOC(=O)C1=C(C)NC(C)=C(C(=O)OCC)C1c1ccccc1C=CC(=O)OC(C)(C)C	N

--- query ---
IN: Which result was noted for this compound in the test: COC(=O)[C@H]1[C@H]2C[C@@H]3c4[nH]c5ccccc5c4CCN3C[C@H]2C[C@@H](OC(=O)c2cc(OC)c(OC)c(OC)c2)[C@@H]1OC
OUT: Y

---

- assay.target: Glutathione peroxidase 1 (Homo sapiens)
- procedure.text: Primary qHTS Assay for Inhibitors of Recombinant Selenoprotein Glutathione Peroxidase 1 (GPX1) (AID 1845191); further: nearly all actives have a fitted effect of over 65% in size
- test.conditions: recombinant GPX1, GR-coupled NADPH fluorescence, 15 min; series mostly up to 48.8 µM
Results filed as inconclusive are left out. Active and inactive are the calls of the source. The call rests on the fitted dose curve; in most records, active means well fitted inhibition curve with a large enough effect; inconclusive means small, poorly fitted or top-dose-only effect; inactive means flat fitted curve, though single readings scatter.
assay.endpoint: outcome

compound	assay.target	outcome
CC(=O)[C@@H]1CC[C@]2(C(=O)O)CC[C@]3(C)C(CCC4[C@@]5(C)CC[C@H](O)C(C)(C)C5CC[C@]43C)C12 (some centres not stated)	Glutathione peroxidase 1 (Homo sapiens)	inactive
CC1=CC(=O)C2C(C)(C)CCCC2(C)C12CCC1(COC(=O)C1)O2 (configuration not stated)	Glutathione peroxidase 1 (Homo sapiens)	inactive
CC1=CC2(O)/C=C/C(C)(O)CC(O)/C=C/C(=O)OC23C(=O)NC(CC(C)C)C3C1C (configuration not stated)	Glutathione peroxidase 1 (Homo sapiens)	inactive
C[C@@H]1O[C@@H](O[C@H]2[C@H](O[C@H]3[C@H](O[C@H]4CC[C@@]5(C)C(CC[C@]6(C)C5CC=C5[C@@H]7CC(C)(C(=O)O)C[C@@H](O)[C@]7(C)CC[C@]56C)[C@@]4(C)CO)O[C@H](C(=O)O)[C@@H](O)[C@@H]3O)O[C@H](CO)[C@H](O)[C@@H]2O)[C@H](O)[C@H](O)[C@H]1O (some centres not stated)	Glutathione peroxidase 1 (Homo sapiens)	inactive

IN: // outcome lookup, key: COC(=O)[C@H](OC(C)=O)[C@H]1C(C)(C)C(=O)[C@H]2CC3=C4CC(=O)O[C@@H](c5ccoc5)[C@]4(C)CCC3[C@@]1(C)C2=O (some centres not stated)
OUT: inactive

IN: Could you tell me which outcome is on file for CNC(=O)c1ccc(Nc2ncc(C(F)(F)F)c(NCc3nccnc3N(C)S(C)(=O)=O)n2)cc1 ?
OUT: inactive

IN: Any idea what its outcome is? The compound is CC(C)[C@H]1CCC(CO)=C[C@@H]1/C=C(\CO)C(=O)O
OUT: inactive

---

- Tested on: PA-1
- procedure.text: Primary qHTS to identify gynecologic anti-cancer compounds using libraries of approved drugs and bioactive compounds (AID 1345084); further: potency means the concentration at half of the fitted maximal effect; nearly all actives have a fitted effect of over 55% in size
- test.conditions: Gynecologic cancer cell panel viability, ATPlite luminescence, 48 h; series mostly up to 57.5 µM
- Source text: National Center for Advancing Translational Sciences [NCATS] Assay Overview: Chemotherapeutic drug responses vary from cancer to cancer and from patient to patient. […] ATPlite is a luminescence based assay reliant on the conversion of a luciferase substrate to light in the presence of ATP. As a cytotoxic compound will suppress growth and decrease the number of cells, the concentration of ATP will decrease, and less light signal will be detected in the well. […]
Results filed as inconclusive are left out. The source made the active and inactive calls. Calls follow the shape of the dose curve; as a rule, active = well fitted cell-killing curve with a large enough effect; inconclusive = small, poorly fitted or top-dose-only effect, or effect the other way; inactive = flat fitted curve, though single readings scatter.
assay.endpoint: Potency

These solved cases illustrate the format of a correct answer.
smiles.entry	Potency
COc1ccc(C[C@H](N)C(=O)N[C@H]2[C@@H](O)[C@H](n3cnc4c(N(C)C)ncnc43)O[C@@H]2CO)cc1	708 nM (active)
CN(C)C/C=C/C(=O)Nc1ccc(C(=O)Nc2cccc(Nc3ncc(Cl)c(-c4c[nH]c5ccccc45)n3)c2)cc1	891 nM (active)
COc1cc(N2CCC(N(C)C)CC2)ccc1Nc1ncc(Cl)c(Nc2ccccc2P(C)(C)=O)n1	8910 nM (active)
O=C(O)C[C@H](O)C[C@H](O)/C=C/c1c(C2CC2)nc2ccccc2c1-c1ccc(F)cc1	10000 nM (active)

Kindly review the next molecule as well.
IN: Sample Nc1ccn([C@@H]2C(F)=C(CO)[C@@H](O)[C@H]2O)c(=O)n1 — what was its Potency?
OUT: 2240 nM (active)

---

- Test system: Nanoluciferase (engineered Oplophorus gracilirostris luciferase)
- procedure.text: Primary Nanoluciferase (NLuc) qHTS assay for identification of artifact compounds. (AID 1845222);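 further: NLuc secreted into diluted conditioned medium of S16 cells; 0% = DMSO and -100% = no enzyme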
- test.conditions: NLuc-conditioned medium, Nano-Glo luminescence, 5 min; series mostly up to 54.1 µM
Active and inactive are the calls of the source. The call rests on the fitted dose curve; in most records, active means well fitted inhibition curve with a large enough effect; inconclusive means small, poorly fitted or top-dose-only effect; inactive means flat fitted curve, though single readings scatter.
assay.endpoint: activity, negative = inhibition

compound	activity, negative = inhibition
CC1(C)CCC2(C(=O)OC3OC(COC4OC(CO)C(O)C(O)C4O)C(O)C(O)C3O)CCC3(C)C(=CCC4C5(C)CCC(O)C(C)(C(=O)O)C5CCC43C)C2C1O (stereo unspecified)	2.66% [at 11.6 µM] (inactive)
O=S(=O)(NC1CCNCC1)c1cc(S(=O)(=O)c2ccccc2)ccc1C(F)(F)F	inactive
CC1=CC2(O)/C=C/C(C)(O)CC(O)/C=C/C(=O)OC23C(=O)NC(CC(C)C)C3C1C (stereo unspecified)	inactive
COC(=O)c1cc(CN2CCN(C(=N)N)CC2)cc(C(=O)N2CCN(C(=O)c3ccc(C(=N)N)cc3)CC2)c1	inactive
COC(=O)C1=COC(O[C@@H]2O[C@H](CO)[C@@H](O)[C@H](O)[C@H]2O)/C(=C\COC(=O)c2ccc(OC3OC(CO)C(O)C(O)C3O)c(OC)c2)C1CC(=O)OCCc1ccc(O)cc1 (stereo partly specified)	4.63% [at 11.6 µM] (inactive)

Now, please, on to the next compound.
IN: Which value of activity, negative = inhibition has been reported for CC(=O)O[C@@H]1[C@@H](OC(=O)/C=C/c2ccccc2)[C@H](C)O[C@@H](O[C@H]2[C@@H]3C=CO[C@@H](O[C@@H]4O[C@H](CO)[C@@H](O)[C@H](O)[C@H]4O)[C@@H]3[C@@]3(CO)O[C@@H]23)[C@@H]1OC(C)=O in the records?
OUT: inactive

---

- Tested on: HACAT
- procedure.text: qHTS assay to identify novel small-molecules to repurpose for Merkel cell carcinoma treatment (AID 1296009); further: nearly all actives have a fitted effect of over 60% in size
- test.conditions: MCC and control cell lines, CellTiter-Glo viability, 72 h; at 44.8 µM (top of the series) unless noted
Records with an inconclusive call do not appear. Active and inactive are the calls of the source. The call rests on the fitted dose curve; in most records, active means well fitted inhibition curve with a large enough effect; inconclusive means small, poorly fitted or top-dose-only effect; inactive means flat fitted curve, though single readings scatter.

smiles.entry	outcome
C[C@@H]1C[C@H](O[C@@H]2O[C@H](CO[C@@H]3OC[C@](O)(CO)[C@H]3O)[C@@H](O)[C@H](O)[C@H]2O)CC(C)(C)[C@H]1/C=C/[C@@H](C)O	inactive [at 17.4 µM]
COc1cc(C)c(C(=O)O[C@H]2[C@@H](O)[C@H](n3ccc(=O)[nH]c3=O)O[C@@H]2CO)c(OC)c1	inactive [at 17.4 µM]
